Test system: Staphylococcus aureus
experiment-summary: Antibacterial activity against methicillin-resistant Staphylococcus aureus ATCC 43300 after 18 hrs by macro broth dilution assay
Format: functional
Property: log(1/C); scope: individual molecules
Give only the figure.

// worked examples, log(1/C) included
# smiles-representation, log(1/C)
rows = [
    ("Clc1ccc(Nc2nc3ccccc3[nH]2)cc1Cl", 4.65),
    ("Fc1ccc(Nc2nc3cc(Cl)ccc3[nH]2)cc1", 4.32),
    ("Clc1ccc2[nH]c(Nc3ccc(Br)cc3)nc2c1", 5.62),
    ("COC(=O)c1ccc2[nH]c(Nc3ccc(Cl)c(Cl)c3)nc2c1", 5.64),
    ("Clc1ccc(Nc2nc3cc(Br)ccc3[nH]2)cc1Cl", 6.28),
]

Bench note: what log(1/C) did Fc1ccc(Nc2nc3cc(Cl)ccc3[nH]2)c(F)c1 show?
4.65

Clc1ccc(Nc2nc3cc(Cl)ccc3[nH]2)cc1 ?
5.25

Then this molecule: Nc1ccc2[nH]c(Nc3ccc(Cl)c(Cl)c3)nc2c1
3.77

Now try FC(F)(F)c1cccc(Nc2nc3cc(Cl)ccc3[nH]2)c1 .
5.3

Also, [N-]=[N+]=Nc1ccc(Nc2nc3cc(Cl)ccc3[nH]2)cc1 please.
4.66

Check O=[N+]([O-])c1ccc2[nH]c(Nc3ccc(Cl)c(Cl)c3)nc2c1 too.
5.32

Each recorded value in this set is attributed to ChEMBL document CHEMBL1156701.
